Assay: HepG2 cell viability effects, profiling panel, calcein-AM fluorescence, 48 h, basal (AID 1164); note: test concentration not given here
Conditions: higher = more signal
Entries annotated with measured z-score
Please give the numeric answer without any surrounding text.

Here's what some known entries look like.
- Chem smiles: "COC(=O)[C@@]1(Cc2ccc(F)cc2)[C@H]2c3cc(C(=O)N4CCCC4)n(CCc4ccc(O)c(O)c4)c3C[C@H]2CN1C(=O)c1ccccc1"
  Readout value: 0.609
- Chem smiles: "C[N+](C)(C)CCCCCCNC(=O)[C@H]1C[C@H]2C(=O)N[C@@H](Cc3ccccc3)C(=O)N2[C@H]1c1ccc(O)cc1"
  Readout value: 0.557

Ask | Which z-score reading was recorded for the compound COc1ccc([Si](C)(C)[C@H]2[C@H](CC(=O)N(CCO)Cc3ccccc3)O[C@@]3(C(=O)N(Cc4cccc(N5CCOC5=O)c4)c4ccccc43)[C@@H]2C)cc1 ?
Reply | -2.16
